From: patent US20260167728A1

- tested system: T1, huCD3e-mFc (human, UniProt P07766 23-126)
- T1 construct: not shown: mFc, not described
- T1 sequence (P07766 23-126): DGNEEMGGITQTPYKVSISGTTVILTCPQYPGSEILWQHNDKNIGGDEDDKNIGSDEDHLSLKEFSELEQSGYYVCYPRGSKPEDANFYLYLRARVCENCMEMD
- procedure text: Pool 3 screen
pKd: −log10 of the molar value.
Each entry below carries its reported pKd.

binder | pKd
AC3796 (CD3.292) (scFv, V domains shown, Pool 3 format (remarks)) VH: EVQLVESGGGIVQPGGSLRLSCAASGFTFSTYAMNWVRQAPGKGLEWVGRIRTKRNNYATYYADSVKGRFTISRDDSKNTVYLQMNSLKTEDTAVYYCVRHENFGNSYVSWFAHWGQGTLVTVSS VL: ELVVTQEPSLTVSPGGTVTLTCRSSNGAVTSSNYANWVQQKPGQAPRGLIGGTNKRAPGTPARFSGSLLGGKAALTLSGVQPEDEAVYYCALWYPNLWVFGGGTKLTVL | 8.41
AC3808 (CD3.304) (scFv, V domains shown, Pool 3 format (remarks)) VH: EVQLVESGGGIVQPGGSLRLSCAASGFTFSTYAMNWVRQAPGKGLEWVGRIRTKRNDYATYYADSVKGRFTISRDDSKNTAYLQMNSLKTEDTAVYYCVRHENFGNSYVSWFAHWGQGTLVTVSS VL: ELVVTQEPSLTVSPGGTVTLTCRSSNGAVTSSNYANWVQQKPGQAPRGLIGGTNKRAPGTPARFSGSLNGGKAALTLSGVQPEDEAVYYCALWYPNLWVFGGGTKLTVL | 8.37
AC3828 (CD3.324) (scFv, V domains shown, Pool 3 format (remarks)) VH: EVQLVESGGGIVQPGGSLRLSCAASGFTFNTYAMNWVRQAPGKGLEWVGRIRTKTNNYATYYADSVKGRFTISRDDSKNTVYLQMNSLKTEDTAVYYCVRHENFGNSYVSWFAHWGQGTLVTVSS VL: ELVVTQEPSLTVSPGGTVTLTCRSSNGAVTSSNYANWVQQKPGQAPRGLIGGTNKRAPGTPARFSGSLGGGKAALTLSGVQPEDEAVYYCALWYPNLWVFGGGTKLTVL | 8.14
AC3845 (CD3.341) (scFv, V domains shown, Pool 3 format (remarks)) VH: EVQLVESGGGIVQPGGSLRLSCAASGFTFNTYAMNWVRQAPGKGLEWVGRIRTKTNDYATYYADSVKGRFTISRDDSKNTLYLQMNSLKTEDTAVYYCVRHENFGNSYVSWFAHWGQGTLVTVSS VL: ELVVTQEPSLTVSPGGTVTLTCRSSNGAVTSSNYANWVQQKPGQAPRGLIGGTNKRAPGTPARFSGSLEGGKAALTLSGVQPEDEAVYYCALWYPNLWVFGGGTKLTVL | 7.80
AC3847 (CD3.343) (scFv, V domains shown, Pool 3 format (remarks)) VH: EVQLVESGGGIVQPGGSLRLSCAASGFTFNTYAMNWVRQAPGKGLEWVGRIRTKTNDYATYYADSVKGRFTISRDDSKNTLYLQMNSLKTEDTAVYYCVRHENFGNSYVSWFAHWGQGTLVTVSS VL: ELVVTQEPSLTVSPGGTVTLTCRSSNGAVTSSNYANWVQQKPGQAPRGLIGGTNKRAPGTPARFSGSLDGGKAALTLSGVQPEDEAVYYCALWYPNLWVFGGGTKLTVL | 7.85
